These data points were gathered from patent US20250042916A1.

subjectOfTest: human calcitonin receptor (CTR) and RAMP3 (AMY3) in COS-7 cells (Homo sapiens, UniProt O60896+P30988)
Sequence (P30988 25-474): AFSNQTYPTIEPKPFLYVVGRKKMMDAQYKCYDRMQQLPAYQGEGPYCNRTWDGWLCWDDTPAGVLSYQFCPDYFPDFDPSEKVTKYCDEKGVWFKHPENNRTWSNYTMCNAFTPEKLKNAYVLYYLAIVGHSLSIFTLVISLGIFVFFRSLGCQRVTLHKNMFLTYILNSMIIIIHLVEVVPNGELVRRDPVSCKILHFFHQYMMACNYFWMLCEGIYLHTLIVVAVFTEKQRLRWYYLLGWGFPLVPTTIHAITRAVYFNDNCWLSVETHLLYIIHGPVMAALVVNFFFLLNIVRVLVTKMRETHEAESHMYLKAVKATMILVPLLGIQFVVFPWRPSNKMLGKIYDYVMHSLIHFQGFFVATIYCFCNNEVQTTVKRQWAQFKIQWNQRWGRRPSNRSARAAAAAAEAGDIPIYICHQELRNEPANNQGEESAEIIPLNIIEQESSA
Sequence (O60896 24-148): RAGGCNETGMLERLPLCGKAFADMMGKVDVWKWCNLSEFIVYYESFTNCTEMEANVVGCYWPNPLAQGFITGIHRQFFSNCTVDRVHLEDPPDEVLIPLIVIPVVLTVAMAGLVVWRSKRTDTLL
experiment: Amylin Receptor cAMP Assay I
Assay type: cell-based
condition: values marked *: Amylin Receptor cAMP Assay I; COS-7/AMY3 cells; read-out: Amylin Receptor cAMP Stimulation Activity: EC50
Experimental: Amylin Receptor cAMP Assay I AMYRs are heterodimers of the class B calcitonin (CT) G-protein-coupled receptor (CTR) and receptor activity-modifying proteins (RAMPs). […] After incubation, the cAMP assay signal was generated using cAMP Hi-range Kit (Cisbio). […] The samples were then incubated at room temperature for 1 hour protected from light. the fluorescence was read at 665 and 615 nm with Reader PerkinElmer EnVision.
readoutLabel: pEC50
The scale used: pEC50 is minus the common logarithm of the concentration in molar units.

compoundstring=Cc1nnc(-c2c(Cc3ccc(F)cc3)nc(CC(C)C)c(C(N)=O)c2-c2ccc(C(=O)NCc3ccc(F)c(F)c3)s2)o1 numericresult=7.13
compoundstring=COc1cccc2c1CC[C@H]2NC(=O)c1ccc(-c2c(C(N)=O)c(CC(C)C)nc(CCc3ccc(F)cc3)c2-c2nnc(C)o2)s1 numericresult=9.10
compoundstring=COc1cccc(CNC(=O)c2ccc(-c3c(C(N)=O)c(CC(C)C)nc(CCc4ccc(F)cc4)c3-c3nnc(C)o3)s2)c1 numericresult=8.21

**Query** # get_value(readout='pEC50', item= `Cc1nnc(-c2c(CCc3ccc(F)cc3)nc(CC(C)C)c(C(N)=O)c2-c2cc3ccnc(NCc4ccc(F)c(F)c4)c3o2)o1` )
**Result** 7.31

**Query** # get_value(readout='pEC50', item= `Cc1nnc(-c2c(CCc3ccc(F)cc3)nc(CC(C)C)c(C(N)=O)c2-c2ccc(C(=O)N[C@@H]3CCc4ccc(F)cc43)s2)o1` )
**Result** 9.00

**Query** # get_value(readout='pEC50', item= `CC(C)Cc1nc(CCc2ccc(F)cc2)c(-c2ccn(C)n2)c(-c2ccc(C(=O)NCc3ccc(F)c(F)c3)s2)c1C(N)=O` )
**Result** 7.17

---

subjectOfTest: human calcitonin receptor (CTR) and RAMP3 (AMY3) in COS-7 cells (Homo sapiens, UniProt O60896+P30988)
experiment: Amylin Receptor cAMP Assay I
Assay type: cell-based
condition: values marked *: Amylin Receptor cAMP Assay I; COS-7/AMY3 cells; read-out: Amylin Receptor cAMP Stimulation Activity: EC50
readoutLabel: EC50 (nM)
Please respond with the number in nM and leave the unit unwritten.

Worked examples follow.
compoundstring=CC(C)Cc1nc(CCc2ccc(F)cc2)c(-c2nnc(C(F)(F)F)o2)c(-c2ccc(C(=O)NCc3ccc(F)c(F)c3)s2)c1C(N)=O unitofmeasurement=nM numericresult=208
compoundstring=Cc1nnc(-c2c(CC34CC(C(F)F)(C3)C4)nc(CC(C)C)c(C(N)=O)c2-c2ccc(C(=O)NCc3ccc(F)c(F)c3)s2)o1 unitofmeasurement=nM numericresult=939
compoundstring=Cc1nnc(-c2c(CCc3ccc(F)cc3)nc(CC(C)C)c(C(N)=O)c2-c2cc3ccccc3s2)o1 unitofmeasurement=nM numericresult=495
compoundstring=Cc1nnc(-c2c(CCc3ccc(F)cc3)nc(CC(C)C)c(C(N)=O)c2-c2cc3ccnc(NCc4cccnc4)c3s2)o1 unitofmeasurement=nM numericresult=381

Let us move to another entry and its EC50.
**Query** # get_value(readout='EC50', item= `COc1cccc2c1CC[C@H]2Nc1nccc2cc(-c3c(C(N)=O)c(CC(C)C)nc(CCC4CCOCC4)c3-c3ncc(C)o3)sc12` )
**Result** 229

---

subjectOfTest: human calcitonin receptor (CTR) and RAMP3 (AMY3) in COS-7 cells (Homo sapiens, UniProt O60896+P30988)
experiment: Amylin Receptor cAMP Assay I
Format: cell-based
condition: values marked *: Amylin Receptor cAMP Assay I; COS-7/AMY3 cells; read-out: Amylin Receptor cAMP Stimulation Activity: EC50
pEC50: −log10 of the molar value.
Classes based on pEC50: low interval (below 6), middle interval (6 to below 7), high interval (7 or more)

**Query** Hey, which category is `Cc1nnc(-c2c(CCc3ccc(F)cc3)nc(CC(C)C)c(C(N)=O)c2CCOC(=O)NCc2ccc(F)c(F)c2)o1` in, do you know?
**Result** low interval

**Query** Hey, which category is `Cc1nnc(-c2c(CCc3ccc(F)cc3)nc(CC(C)C)c(C(N)=O)c2-c2ccc(C(=O)N[C@H]3CCc4ccccc43)s2)o1` in, do you know?
**Result** middle interval

**Query** Hey, which category is `Cc1nnc(-c2c(CCc3ccc(F)cc3)nc(CC(C)C)c(C(N)=O)c2-c2ccc(CN[C@@H]3CCc4ccccc43)s2)o1` in, do you know?
**Result** middle interval

**Query** Hey, which category is `Cc1ccc(CNc2nccc3cc(-c4c(C(N)=O)c(CC(C)C)nc(CCc5ccc(F)cc5)c4-c4nnc(C)o4)sc23)cn1` in, do you know?
**Result** middle interval

**Query** Hey, which category is `Cc1nnc(-c2c(CCc3ccc(F)cc3)nc(CC(C)C)c(C(N)=O)c2-c2ccc(C(=O)N[C@@H]3CCc4ncccc43)s2)o1` in, do you know?
**Result** high interval

**Query** Hey, which category is `Cc1nnc(-c2c(CCc3ccc(F)cc3)nc(CC(C)C)c(C(N)=O)c2-c2cc3ncnc(NCc4ccc(F)c(F)c4)c3s2)o1` in, do you know?
**Result** high interval

**Query** Hey, which category is `Cc1nnc(-c2c(COc3ccc(F)cc3)nc(CC(C)C)c(C(N)=O)c2-c2ccc(C(=O)NCc3ccc(F)c(F)c3)s2)o1` in, do you know?
**Result** middle interval

**Query** Hey, which category is `Cc1nnc(-c2c(CCc3ccc(F)cc3)nc(CC(C)C)c(C(N)=O)c2-c2ccc3c(ccn3CCc3ccc(F)c(F)c3)c2)o1` in, do you know?
**Result** high interval

**Query** Hey, which category is `CCc1nc(CC(C)C)c(C(N)=O)c(-c2ccc(C(=O)NCc3ccc(F)c(F)c3)cc2)c1-c1nnc(C)o1` in, do you know?
**Result** low interval

**Query** Hey, which category is Cc1nnc(-c2c(CCc3ccc(F)cc3)nc(CC(C)C)c(C(N)=O)c2-c2ccc3c(c2)CCC3NCc2ccc(F)c(F)c2)o1 (stereo not shown) in, do you know?
**Result** middle interval

**Query** Hey, which category is `CCc1nc(CC(C)C)c(C(N)=O)c(-c2ccc(C(=O)NCc3ccc(F)c(F)c3)s2)c1-c1nnc(C)o1` in, do you know?
**Result** low interval

**Query** Hey, which category is `CO[C@H]1CCCN(C(=O)c2ccc(-c3c(C(N)=O)c(CC(C)C)nc(CCc4ccc(F)cc4)c3-c3nnc(C)o3)s2)C1` in, do you know?
**Result** low interval

**Query** Hey, which category is `Cc1nnc(-c2c(CC3CC(F)(F)C3)nc(CC(C)C)c(C(N)=O)c2-c2ccc(C(=O)NCc3ccc(F)c(F)c3)s2)o1` in, do you know?
**Result** low interval

**Query** Hey, which category is `Cc1nnc(-c2c(CCc3ccc(F)cc3)nc(CC(C)C)c(C(N)=O)c2-c2ccc(C(=O)NCc3ccc(F)c(F)c3)s2)o1` in, do you know?
**Result** high interval

**Query** Hey, which category is `Cc1nnc(-c2c(CCc3ccc(F)cc3)nc(CC(C)C)c(C(N)=O)c2-c2cc3c(NCc4ccc(F)c(F)c4)nccc3s2)o1` in, do you know?
**Result** high interval

**Query** Hey, which category is `Cc1nnc(-c2c(CCc3ccc(F)cc3)nc(CC(C)C)c(C(N)=O)c2-c2ccc(C(=O)N[C@@H]3CCc4cc(F)ccc43)s2)o1` in, do you know?
**Result** high interval

**Query** Hey, which category is `Cc1nnc(-c2c(CCc3ccc(F)cc3)nc(CC(C)C)c(C(N)=O)c2-c2cc3ccnc(NCc4ccncc4)c3s2)o1` in, do you know?
**Result** middle interval

**Query** Hey, which category is `Cc1nnc(-c2c(CCC(=O)N3CCCC3)nc(CC(C)C)c(C(N)=O)c2-c2ccc(C(=O)NCc3ccc(F)c(F)c3)s2)o1` in, do you know?
**Result** low interval

---

subjectOfTest: human calcitonin receptor (CTR) and RAMP3 (AMY3) in COS-7 cells (Homo sapiens, UniProt O60896+P30988)
experiment: Amylin Receptor cAMP Assay I
Type: cell-based
condition: values marked *: Amylin Receptor cAMP Assay I; COS-7/AMY3 cells; read-out: Amylin Receptor cAMP Stimulation Activity: EC50
Classes based on EC50: A: < 10 nM; B: ≥ 10 nM and < 300 nM; C: ≥ 300 nM

Examples from the recorded data:
compound="Cc1nnc(-c2c(CCc3ccc(F)cc3)nc(CC(C)C)c(C(N)=O)c2-c2cc3cccc(NCc4ccc(F)c(F)c4)c3s2)o1 [Compound 136]" classification=A
compound="Cc1nnc(-c2c(CC(C)(C)c3ccc(F)cc3)nc(CC(C)C)c(C(N)=O)c2-c2ccc(C(=O)NCc3ccc(F)c(F)c3)s2)o1 [Compound 176]" classification=C
compound="Cc1nnc(-c2c(CCc3ccc(F)cc3)nc(CC(C)C)c(C(N)=O)c2-c2ccc3c(c2)CCC3OCc2ccc(F)c(F)c2)o1 (stereo not drawn) [Compound 142]" classification=B
compound="Cc1nnc(-c2c(COc3ccc(F)cc3)nc(CC(C)C)c(C(N)=O)c2-c2cc3ccnc(N[C@@H]4CCc5ncccc54)c3s2)o1 [Compound 173]" classification=C
compound="Cc1nnc(-c2c(CC(C)C)nc(CC(C)C)c(C(N)=O)c2-c2ccc(C(=O)NCc3ccc(F)c(F)c3)s2)o1 [Compound 111]" classification=C
compound="Cc1nnc(-c2c(CCc3ccc(F)cc3)nc(CC(C)C)c(S(C)(=O)=O)c2-c2ccc(C(=O)NCc3ccc(F)c(F)c3)s2)o1 [Compound 155]" classification=C

Query compound follows.
**Query** Hey, which category is Cc1ncoc1-c1c(CCc2ccc(F)cc2)nc(CC(C)C)c(C(N)=O)c1-c1ccc(C(=O)NCc2ccc(F)c(F)c2)s1 [Compound 153] in, do you know?
**Result** B
